System: Plasmodium falciparum
procedure_text: GSK_TCMDC: Inhibition of Plasmodium falciparum 3D7 in whole red blood cells, using parasite LDH activity as an index of growth. Test compounds present at 2uM
Assay type: functional
As shown below, each of these molecules has a reported Inhibition value.
Just so you know, I need the unit written after the number.

>>> value("CNCc1ccc(-c2ccc3ccnc(N)c3c2)cc1")
"94%"
>>> value("CN(C)CCOc1cccc(NC(=O)Nc2ccc(-c3ccccc3)cc2)c1.O=C(O)C(F)(F)F")
"90%"
>>> value("Cc1cc(C)n(-c2nc(Nc3cccc(C(F)(F)F)c3)nc(-n3nc(C)cc3C)n2)n1")
"99%"
>>> value("O=C(/C=C/c1ccc(Cl)c(Cl)c1)NCCCCCN1CCC(NC(=O)c2ccc3ccccc3c2)CC1")
"87%"
>>> value("CC(C)N1CCN(C(CN2CCN(CCCOc3ccc(-c4ccccc4)cc3)CC2)c2ccc(F)cc2)CC1.Cl (stereo not given)")
"100%"
>>> value("Br.CC1(C)NC(N)=NC(=N)N1OCCSCc1cc(Cl)sc1Cl")
"93%"
>>> value("CC(C)c1ccc(CN2CCC(NC(=O)c3ccc(-c4cccc(F)c4)s3)CC2)cc1.O=C(O)C(F)(F)F")
"83%"
>>> value("COc1cc(NC(=O)c2cc([N+](=O)[O-])ccc2NC(=O)CNC2CCCC(C)C2C)cc(OC)c1 (stereo not given)")
"97%"
>>> value("O=C(c1ccc(-c2cccc(-c3nc4cc(C(F)(F)F)ccc4[nH]3)c2)cc1)N1CCCCC1CN1CCC(O)C1 (stereo not given)")
"100%"
>>> value("NC1=NC(c2ccccc2)(c2ccccc2)C(=O)N1Cc1ccc(-c2cccnc2)cc1.O=CO")
"99%"

input: Item `COc1cc(C(=O)Nc2cccc(-c3nc4ccccc4[nH]3)c2)cc(OC)c1OC` has what recorded Inhibition?
output: 99%

Reference for the values: ChEMBL document CHEMBL1157539
